Target: T1, deglycosylated V domain of human CD33 (human, UniProt P20138 18-139, limits assumed, N-glycans removed by PNGase)
T1 construct: V domain deglycosylated by PNGase before testing; also called deglycosylated V CD33
Test: SPR, Fab captured, 37C;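 note: biacore 8K surface plasmon resonance with Fabs held on an amine-coupled anti-Fab antibody surface, soluble monomeric CD33 domain injected as analyte, double-referenced 1:1 binding fit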
# koff values compiled below

binder | unit.of.measurement | koff
ADI-10159 Fab (Fab, V domains shown, Fab fragment; also called Ab1; G59) VH: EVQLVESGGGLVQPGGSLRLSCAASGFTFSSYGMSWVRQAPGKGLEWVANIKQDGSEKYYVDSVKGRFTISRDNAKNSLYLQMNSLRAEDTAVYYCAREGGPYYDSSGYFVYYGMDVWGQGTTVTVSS VL: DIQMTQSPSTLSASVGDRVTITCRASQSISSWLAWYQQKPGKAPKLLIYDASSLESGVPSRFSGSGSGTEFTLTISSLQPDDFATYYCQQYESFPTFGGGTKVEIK | s⁻¹ | 0.012
ADI-11825 Fab (Fab, V domains shown, Fab fragment; also called Ab25) VH: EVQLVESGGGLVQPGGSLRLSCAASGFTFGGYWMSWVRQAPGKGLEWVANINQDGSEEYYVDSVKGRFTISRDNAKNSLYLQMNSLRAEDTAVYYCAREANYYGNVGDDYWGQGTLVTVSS VL: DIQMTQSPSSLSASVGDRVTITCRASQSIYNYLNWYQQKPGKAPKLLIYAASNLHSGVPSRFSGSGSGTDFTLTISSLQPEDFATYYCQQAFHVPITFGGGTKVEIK | s⁻¹ | 0.018
ADI-10158 Fab (Fab, V domains shown, Fab fragment; also called Ab14) VH: QVQLQQWGAGLLKPSETLSLTCAVYGGSFSGYYWSWIRQPPGKGLEWIGEIDHSGSTNYNPSLKSRVTISVDTSKNQFSLKLSSVTAADTAVYYCARQGIHGLRYFDLWGRGTLVTVSS VL: EIVMTQSPATLSLSPGERATLSCRASQSVSSYLAWYQQKPGQAPRLLIYDASNRATGIPARFSGSGSGTDFTLTISSLEPEDFAVYYCQQDHNFPYTFGGGTKVEIK | s⁻¹ | 0.231
